Numbers sourced from a melting point compilation (Tetko et al.; mined from patent text by program, amines drawn as free bases though some values may be those of a salt).

quantity-kind: melting point

-- ask State the recorded melting point for this entry: CC(=O)N1Cc2cccn2N(C)c2ccncc21
-- reply 125 to 130 °C

-- ask // repeat for NC(Cc1ccc2c(c1)CCC2)=NO and report
-- reply 60 °C

-- ask Another compound to look at: CC(=O)OC1OCC[C@@H]1NC(=O)[C@@H](NC(=O)OCc1ccccc1)C(C)C (stereo not given in full)
-- reply 173 to 174 °C

-- ask For CCOP(=O)(CC(=O)O)CC(Cc1ccccc1)NS(=O)(=O)c1ccc(C)cc1 (stereo not given) then?
-- reply 110 to 112 °C

-- ask Proceed to COC(=O)C1CC(=O)N(Cc2ccccc2)C1c1c(Cl)cccc1Cl (stereo not given)
-- reply 97 to 102 °C

-- ask Consider next the compound CCCCc1c(CO)ccc2ccc(OC)cc12 in the same way.
-- reply 52 to 53 °C

-- ask How about this compound: Cc1cccc(-c2sc3ccc(C(F)(F)F)cc3c2O)c1
-- reply 124 to 126 °C

-- ask // same read-out, input: COc1cc(C)nc2c(OCc3c(Cl)ccc(N(C)C(=O)CN4C(=O)c5ccccc5C4=O)c3Cl)cccc12
-- reply 209 to 210 °C

-- ask Subsequent entry: COC(=O)c1ccc2nc(-c3ccc4c(c3)C(C)(C)CCC4(C)C)[nH]c2c1
-- reply 223 °C

-- ask Then this compound: CCCCCCC/C=C/C(=O)NCC
-- reply 38 to 40 °C
